In this section we review reported composite z-score values for a set of molecules.
TARGET_OF_ASSAY: Focal adhesion kinase 1 (Homo sapiens) (UniProt Q05397)
Sequence (Q05397 whole entry, looked up): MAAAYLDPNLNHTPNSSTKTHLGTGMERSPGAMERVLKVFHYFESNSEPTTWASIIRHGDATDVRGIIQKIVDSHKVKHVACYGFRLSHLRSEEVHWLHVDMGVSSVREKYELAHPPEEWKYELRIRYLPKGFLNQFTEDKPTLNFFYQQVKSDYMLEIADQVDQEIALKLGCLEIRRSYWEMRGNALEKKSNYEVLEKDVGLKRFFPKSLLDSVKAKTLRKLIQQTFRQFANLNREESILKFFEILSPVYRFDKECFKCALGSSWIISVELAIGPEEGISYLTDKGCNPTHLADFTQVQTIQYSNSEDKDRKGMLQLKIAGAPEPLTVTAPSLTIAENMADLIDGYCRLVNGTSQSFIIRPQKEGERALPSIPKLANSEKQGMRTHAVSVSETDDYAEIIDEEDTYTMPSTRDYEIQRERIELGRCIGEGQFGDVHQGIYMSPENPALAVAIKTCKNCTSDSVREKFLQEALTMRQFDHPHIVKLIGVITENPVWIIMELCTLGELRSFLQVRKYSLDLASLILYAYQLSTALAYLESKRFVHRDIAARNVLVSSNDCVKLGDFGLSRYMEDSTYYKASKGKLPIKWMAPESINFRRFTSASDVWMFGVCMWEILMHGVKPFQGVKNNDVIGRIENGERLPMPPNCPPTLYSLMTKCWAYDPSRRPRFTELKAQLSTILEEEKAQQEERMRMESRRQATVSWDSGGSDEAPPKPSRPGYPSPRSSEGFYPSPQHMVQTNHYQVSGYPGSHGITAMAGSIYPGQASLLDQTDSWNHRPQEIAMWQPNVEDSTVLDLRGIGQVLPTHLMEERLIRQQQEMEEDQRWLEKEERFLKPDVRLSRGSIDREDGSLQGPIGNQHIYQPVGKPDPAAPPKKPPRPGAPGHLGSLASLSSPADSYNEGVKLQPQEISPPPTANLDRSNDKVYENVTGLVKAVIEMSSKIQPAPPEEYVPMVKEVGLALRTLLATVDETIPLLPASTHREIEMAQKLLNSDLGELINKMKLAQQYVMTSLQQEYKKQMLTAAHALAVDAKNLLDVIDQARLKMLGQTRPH
ASSAY_TEXT: PTK2 protein binding on printed compound slides – biochemical, small-molecule microarray, 635/667 nm fluorescence, BSA, DTT, primary screen (AID 1130);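 also: composite of spot emission at 667 nm and signal to noise over triplicate slides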
MEASUREMENT_CONTEXT: 635 nm fluorescence, higher = more signal

In the examples that follow, each entry is paired with its recorded composite z-score.
O=P(c1ccccc1)(c1ccccc1)N1CC2(CC2)CC(O)(c2ccccc2)C1 (stereo not given); 1.26
COC(=O)[C@@]1(Cc2ccccc2)[C@H]2c3cc(C(=O)N(C)C)[nH]c3C[C@H]2CN1C(=O)c1ccccc1; -0.206
OCc1ccc(C2=CC(c3cccs3)N(Cc3cccc(OC(F)(F)F)c3)CC2)cc1 (stereo not given); 0.147
CCOC(=O)[C@H]1CC=C2C(=O)Oc3ccccc3[C@@H]21; 0.374

Please look at the following molecule next.
Dear colleague, please send me the reported composite z-score for COC(=O)[C@H]1[C@H](c2ccccc2)C(=O)[C@]2(O)c3ccccc3O[C@@]12c1ccccc1 when you can. 0.227
